I'd appreciate it if you could supply MIC values for the items below.
- Test system: Staphylococcus aureus
- EXPERIMENT DESCRIPTION: Antibacterial activity against Staphylococcus aureus ATCC 25825 after 24 hrs by twofold serial dilution method
- Assay type: functional
- STATED CONDITIONS: ATCC 25825, 24 h
// return numeric value only (unit: µg/mL, not printed)

Q: Query (molecule): O=C1CS/C(=N\N=C2C3CCCC2C(c2ccccc2)NC3c2ccccc2)N1 (centres undefined) ; field requested: MIC
A: 50

Q: Query (molecule): CN[C@@H]1[C@H](O[C@H]2[C@H](O[C@H]3[C@H](O)[C@@H](O)[C@H](N=C(N)N)[C@@H](O)[C@@H]3N=C(N)N)O[C@@H](C)[C@]2(O)C=O)O[C@@H](CO)[C@H](O)[C@H]1O ; field requested: MIC
A: 50

Q: Query (molecule): Cc1ccc(C2NC(c3ccc(C)cc3)C3CCCC2C3=NNC(N)=S)cc1 (centres undefined) ; field requested: MIC
A: 12.5

Q: Query (molecule): O=C1CS/C(=N\N=C2C3CCCC2C(c2ccc(F)cc2)NC3c2ccc(F)cc2)N1 (centres undefined) ; field requested: MIC
A: 6.25

* * *

- System: Staphylococcus aureus
- EXPERIMENT DESCRIPTION: Antibacterial activity against Staphylococcus aureus ATCC 25825 after 24 hrs by twofold serial dilution method
- Assay type: functional
- STATED CONDITIONS: ATCC 25825, 24 h
I'd appreciate it if you could supply MIC values for the items below.
// return numeric value only (unit: µg/mL, not printed)

Q: Query (compound): NC(=S)NN=C1C2CCCC1C(c1ccc(Cl)cc1)NC2c1ccc(Cl)cc1 (stereo not drawn) ; field requested: MIC
A: 25

Q: Query (compound): COc1cccc(C2NC(c3cccc(OC)c3)C3CCCC2C3=N/N=C2/NC(=O)CS2)c1 (stereo not drawn) ; field requested: MIC
A: 100

Q: Query (compound): COc1cccc(C2NC(c3cccc(OC)c3)C3CCCC2C3=NNC(N)=S)c1 (stereo not drawn) ; field requested: MIC
A: 50

Q: Query (compound): NC(=S)NN=C1C2CCCC1C(c1cccc(F)c1)NC2c1cccc(F)c1 (stereo not drawn) ; field requested: MIC
A: 6.25

Q: Query (compound): O=C1CS/C(=N/N=C2C3CCCC2C(c2ccccc2Cl)NC3c2ccccc2Cl)N1 (stereo not drawn) ; field requested: MIC
A: 100

Q: Query (compound): O=C1CS/C(=N\N=C2C3CCCC2C(c2cccc(F)c2)NC3c2cccc(F)c2)N1 (stereo not drawn) ; field requested: MIC
A: 100

Q: Query (compound): Cc1ccc(C2NC(c3ccc(C)cc3)C3CCCC2C3=N/N=C2/NC(=O)CS2)cc1 (stereo not drawn) ; field requested: MIC
A: 25

Q: Query (compound): NC(=S)NN=C1C2CCCC1C(c1ccc(F)cc1)NC2c1ccc(F)cc1 (stereo not drawn) ; field requested: MIC
A: 50

Q: Query (compound): NC(=S)NN=C1C2CCCC1C(c1ccccc1Cl)NC2c1ccccc1Cl (stereo not drawn) ; field requested: MIC
A: 200

Q: Query (compound): COc1ccc(C2NC(c3ccc(OC)cc3)C3CCCC2C3=N/N=C2/NC(=O)CS2)cc1 (stereo not drawn) ; field requested: MIC
A: 6.25

Q: Query (compound): O=C1CS/C(=N\N=C2C3CCCC2C(c2ccc(Cl)cc2)NC3c2ccc(Cl)cc2)N1 (stereo not drawn) ; field requested: MIC
A: 6.25

Q: Query (compound): COc1ccc(C2NC(c3ccc(OC)cc3)C3CCCC2C3=NNC(N)=S)cc1 (stereo not drawn) ; field requested: MIC
A: 25

Q: Query (compound): NC(=S)NN=C1C2CCCC1C(c1ccccc1)NC2c1ccccc1 (stereo not drawn) ; field requested: MIC
A: 50

* * *

- Tested on: Aspergillus flavus
- EXPERIMENT DESCRIPTION: Antifungal activity against Aspergillus flavus ATCC 485 after 72 to 96 hrs by twofold serial dilution method
- Format: functional
REPORTED ENDPOINT: MIC (µg/mL)
// return numeric value only (unit: µg/mL, not printed)

Q: Query (compound): O=C1CS/C(=N\N=C2C3CCCC2C(c2cccc(F)c2)NC3c2cccc(F)c2)N1 (configuration not stated) ; field requested: MIC
A: 50

Q: Query (compound): O=C1CS/C(=N\N=C2C3CCCC2C(c2ccc(Cl)cc2)NC3c2ccc(Cl)cc2)N1 (configuration not stated) ; field requested: MIC
A: 100

Q: Query (compound): NC(=S)NN=C1C2CCCC1C(c1ccc(F)cc1)NC2c1ccc(F)cc1 (configuration not stated) ; field requested: MIC
A: 6.25

Q: Query (compound): C[C@@H]1[C@H](O)[C@@H](C)/C=C/C=C/C=C/C=C/C=C/C=C/C=C/[C@H](O[C@@H]2O[C@H](C)[C@@H](O)[C@H](N)[C@@H]2O)C[C@@H]2O[C@](O)(C[C@@H](O)C[C@@H](O)[C@H](O)CC[C@@H](O)C[C@@H](O)CC(=O)O[C@H]1C)C[C@H](O)[C@H]2C(=O)O ; field requested: MIC
A: 50

Q: Query (compound): COc1ccc(C2NC(c3ccc(OC)cc3)C3CCCC2C3=NNC(N)=S)cc1 (configuration not stated) ; field requested: MIC
A: 100

Q: Query (compound): NC(=S)NN=C1C2CCCC1C(c1ccccc1Cl)NC2c1ccccc1Cl (configuration not stated) ; field requested: MIC
A: 100

Q: Query (compound): COc1cccc(C2NC(c3cccc(OC)c3)C3CCCC2C3=N/N=C2/NC(=O)CS2)c1 (configuration not stated) ; field requested: MIC
A: 200

* * *

I'd appreciate it if you could supply MIC values for the items below.
- System: Bacillus subtilis
- EXPERIMENT DESCRIPTION: Antibacterial activity against Bacillus subtilis ATCC 451 after 24 hrs by twofold serial dilution method
- Type: functional
- STATED CONDITIONS: ATCC 451, 24 h
Record the result as a number with its unit.

Q: Query (compound): NC(=S)NN=C1C2CCCC1C(c1ccccc1Cl)NC2c1ccccc1Cl (configuration not stated) ; field requested: MIC
A: 100 µg/mL

Q: Query (compound): O=C1CS/C(=N\N=C2C3CCCC2C(c2cccc(F)c2)NC3c2cccc(F)c2)N1 (configuration not stated) ; field requested: MIC
A: 50 µg/mL

Q: Query (compound): NC(=S)NN=C1C2CCCC1C(c1cccc(F)c1)NC2c1cccc(F)c1 (configuration not stated) ; field requested: MIC
A: 25 µg/mL

Q: Query (compound): O=C1CS/C(=N\N=C2C3CCCC2C(c2ccc(F)cc2)NC3c2ccc(F)cc2)N1 (configuration not stated) ; field requested: MIC
A: 25 µg/mL

Q: Query (compound): NC(=S)NN=C1C2CCCC1C(c1ccc(F)cc1)NC2c1ccc(F)cc1 (configuration not stated) ; field requested: MIC
A: 25 µg/mL

Q: Query (compound): COc1cccc(C2NC(c3cccc(OC)c3)C3CCCC2C3=NNC(N)=S)c1 (configuration not stated) ; field requested: MIC
A: 50 µg/mL

Q: Query (compound): O=C1CS/C(=N/N=C2C3CCCC2C(c2ccccc2Cl)NC3c2ccccc2Cl)N1 (configuration not stated) ; field requested: MIC
A: 100 µg/mL

Q: Query (compound): COc1ccc(C2NC(c3ccc(OC)cc3)C3CCCC2C3=NNC(N)=S)cc1 (configuration not stated) ; field requested: MIC
A: 50 µg/mL

Q: Query (compound): O=C1CS/C(=N\N=C2C3CCCC2C(c2ccccc2)NC3c2ccccc2)N1 (configuration not stated) ; field requested: MIC
A: 25 µg/mL

Q: Query (compound): CN[C@@H]1[C@H](O[C@H]2[C@H](O[C@H]3[C@H](O)[C@@H](O)[C@H](N=C(N)N)[C@@H](O)[C@@H]3N=C(N)N)O[C@@H](C)[C@]2(O)C=O)O[C@@H](CO)[C@H](O)[C@H]1O [STREPTOMYCIN] ; field requested: MIC
A: 12.5 µg/mL

Q: Query (compound): Cc1ccc(C2NC(c3ccc(C)cc3)C3CCCC2C3=N/N=C2/NC(=O)CS2)cc1 (configuration not stated) ; field requested: MIC
A: 25 µg/mL

Q: Query (compound): COc1cccc(C2NC(c3cccc(OC)c3)C3CCCC2C3=N/N=C2/NC(=O)CS2)c1 (configuration not stated) ; field requested: MIC
A: 100 µg/mL

Q: Query (compound): COc1ccc(C2NC(c3ccc(OC)cc3)C3CCCC2C3=N/N=C2/NC(=O)CS2)cc1 (configuration not stated) ; field requested: MIC
A: 50 µg/mL

Q: Query (compound): Cc1ccc(C2NC(c3ccc(C)cc3)C3CCCC2C3=NNC(N)=S)cc1 (configuration not stated) ; field requested: MIC
A: 100 µg/mL

Q: Query (compound): NC(=S)NN=C1C2CCCC1C(c1ccc(Cl)cc1)NC2c1ccc(Cl)cc1 (configuration not stated) ; field requested: MIC
A: 100 µg/mL

Q: Query (compound): O=C1CS/C(=N\N=C2C3CCCC2C(c2ccc(Cl)cc2)NC3c2ccc(Cl)cc2)N1 (configuration not stated) ; field requested: MIC
A: 25 µg/mL

Q: Query (compound): NC(=S)NN=C1C2CCCC1C(c1ccccc1)NC2c1ccccc1 (configuration not stated) ; field requested: MIC
A: 100 µg/mL
